- assay_overview: In vitro lipid peroxidation of liposomes
Decide by % Inhb. of Liposomes LP @ 100 μM: equal to or exceeding 60% means label 1, less means label 0.

Challenge: Reported % Inhb. of Liposomes LP @ 100 μM at or above 60%? CN(C)c1ccc(/C=C/C=C/C(=O)c2ccc(OCCCCCOc3ccc(C(=O)/C=C/C=C/c4ccc(N(C)C)cc4)cc3)cc2)cc1
Response given: label 1

Challenge: One more molecule: O=C(/C=C/c1cccc(Oc2ccccc2)c1)c1ccc(OCCCOc2ccc(C(=O)/C=C/c3cccc(Oc4ccccc4)c3)cc2)cc1
Response given: label 0

Challenge: One more molecule: Cc1ccc(/C=C/C(=O)c2ccc(OCCCOc3ccc(C(=O)/C=C/c4ccc(C)o4)cc3)cc2)o1
Response given: label 1

Challenge: One more molecule: O=C(/C=C/c1cccc2ccccc12)c1ccc(OCCCOc2ccc(C(=O)/C=C/c3cccc4ccccc34)cc2)cc1
Response given: label 0

Challenge: One more molecule: Cc1c(C)c2c(c(C)c1O)CCC(C)(C(=O)O)O2 (centres unmarked) [Trolox, reference compound]
Response given: label 1

Challenge: One more molecule: CN(C)c1ccc(/C=C/C=C/C(=O)c2ccc(OCCCCCCCOc3ccc(C(=O)/C=C/C=C/c4ccc(N(C)C)cc4)cc3)cc2)cc1
Response given: label 1

Challenge: One more molecule: CN(C)c1ccc(/C=C/C=C/C(=O)c2ccc(OCCOc3ccc(C(=O)/C=C/C=C/c4ccc(N(C)C)cc4)cc3)cc2)cc1
Response given: label 0

Challenge: One more molecule: CN(C)c1ccc(/C=C/C=C/C(=O)c2ccc(OCCCOc3ccc(C(=O)/C=C/C=C/c4ccc(N(C)C)cc4)cc3)cc2)cc1
Response given: label 1
